Origin of values: patent US11453657B2

This listing pairs compounds with measured pIC50.
- Tested on: P. falciparum infected erythrocytes
- assayDetails: P. falciparum growth inhibition assay ([3H]hypoxanthine incorporation)
- Type: cell-based, Plasmodium falciparum
- measurementContext: Plasmodium falciparum, Erythrocyte, [3H]hypoxanthine incorporation, 0.5% parasitemia, 2% hematocrit, 48 h; read-out: PfIC50 Media
pIC50: −log10 of the molar value. Counter-ions that a name gives are not always drawn.

| compound | testedTarget | pIC50 |
| --- | --- | --- |
| O=C(c1ccc(OC[C@H](O)Cn2ncnn2)cc1)N1CCC(c2cccc(F)c2)C1 (single isomer, unassigned) [Example 41b] | P. falciparum infected erythrocytes | 6.30 to 7.00 |
| Cn1cc(CC(O)COc2ccc(C(=O)N3CC[C@H](c4ccc(F)cc4)C3)cc2)cn1 (mixture of isomers) [Example 37] | P. falciparum infected erythrocytes | 5.30 to 6.00 |
| NC(=O)c1nnn(C[C@@H](O)COc2ccc(C(=O)N3CC[C@H](c4ccc(F)cc4)C3)cc2)n1 [Example 38] | P. falciparum infected erythrocytes | 6.30 to 7.00 |
| O=C(c1ccc(OC[C@H](O)Cn2nccn2)cc1)N1CC[C@H](c2ccc(Cl)cc2)C1 [Example 31] | P. falciparum infected erythrocytes | > 7.00 |
| O=C(c1ccc(OCC(O)Cc2cscn2)cc1)N1CC[C@H](c2ccc(F)cc2)C1 (single isomer, unassigned) [Example 35a] | P. falciparum infected erythrocytes | > 7.00 |
| N[C@H](COc1ccc(C(=O)N2CC[C@H](c3ccc(F)cc3)C2)cc1)Cn1ncnn1 [Example 49, Hydrochloride] | P. falciparum infected erythrocytes | 6.30 to 7.00 |
| O=C(c1ccc(OC[C@H](O)Cn2ncnn2)cc1)N1CC[C@H](c2ccc(Cl)cc2)C1 [Example 29] | P. falciparum infected erythrocytes | > 7.00 |
| O=C(c1ccc(OC[C@H](O)Cn2cnnn2)cc1)N1CC[C@H](c2ccc(Cl)cc2)C1 [Example 28] | P. falciparum infected erythrocytes | > 7.00 |

Give the reported pIC50 for O=C(c1ccc(OC[C@H](O)Cc2nnn[nH]2)cc1)N1CC[C@H](c2ccc(F)cc2)C1 [Example 25] (system: P. falciparum infected erythrocytes).
5.30 to 6.00

Also check O=C(c1ccc(OC[C@H](O)Cn2ncnn2)cc1)N1CCC(c2ccc(F)cc2F)C1 (single isomer, unassigned) [Example 42a]
> 7.00

Also check Cn1nnnc1C[C@@H](O)COc1ccc(C(=O)N2CC[C@H](c3ccc(F)cc3)C2)cc1 [Example 24]
6.30 to 7.00

Also check Cc1nnnn1C[C@@H](O)COc1ccc(C(=O)N2CC[C@H](c3ccc(F)cc3)C2)cc1 [Example 21]
6.00 to 6.30

Also check O=C(c1ccc(OC[C@H](O)Cn2ncnn2)cc1F)N1CC[C@H](c2ccc(F)cc2)C1 [Example 27]
> 7.00

Also check Cn1nnc(C[C@@H](O)COc2ccc(C(=O)N3CC[C@H](c4ccc(F)cc4)C3)cc2)n1 [Example 23]
> 7.00

Also check O=C(c1ccc(OC[C@H](O)Cn2ncnn2)cc1)N1CC[C@@H](c2ccc(F)cc2)C1 [Example 13]
> 7.00

Also check N[C@@H](COc1ccc(C(=O)N2CC[C@H](c3ccc(F)cc3)C2)cc1)Cn1cccn1 [Example 55, Hydrochloride]
6.30 to 7.00

Also check O=C(c1ccc(OC[C@H](O)Cn2ccnn2)cc1)N1CC[C@H](c2ccc(F)cc2)C1 [Example 17]
> 7.00

Also check O=C(c1ccc(OC[C@H](O)Cn2nccn2)cc1)N1CC[C@H](c2ccc(F)cc2)C1 [Example 16]
> 7.00

Also check N[C@@H](COc1ccc(C(=O)N2CC[C@H](c3ccc(F)cc3)C2)c(F)c1)Cn1ncnn1 [Example 56, Hydrochloride]
6.30 to 7.00

Also check O=C(c1ccc(OC[C@H](O)Cn2cnnn2)cc1)N1CC[C@H](c2ccc(F)cc2)C1 [Example 5]
> 7.00

Also check O=C(c1ccc(OC[C@H](O)Cn2ccnn2)cc1)N1CC[C@H](c2ccc(Cl)cc2)C1 [Example 32]
> 7.00
